# measuredOn: TYK2 (Homo sapiens)
# Construct: endogenous in cells; host or cells: Molt4 (ATCC CRL-1582) and Ramos (ATCC CRL-1596), mixed lysate 1:2
# testName: Kinobeads assay, TYK2 (competition binding in mixed Molt4/Ramos cell lysate, dot blot detection)
# testSettings: Kinobeads assay, Molt4/Ramos lysate; read-out: TYK2 Band (Kinobeads assay potency, IC50)
pIC50: −log10 of the molar value.
resultType: pIC50

Check out these entries, answers already filled in.
* CS(=O)(=O)c1ccccc1CNc1nc(Nc2cnn(CC(N)=O)c2)ncc1F | 6.00 to 7.00
* N#C[C@@H]1CCCN1C(=O)Cn1cc(Nc2ncc(Cl)c(NCc3ccccc3)n2)cn1 | 6.00 to 7.00
* O=C(O)Cn1cc(Nc2ncc(Cl)c(NCc3cc(F)cc(F)c3)n2)cn1 | 6.00 to 7.00

Hey, TYK2 (Homo sapiens) data for `Cc1cnc(Nc2cnn(CCO)c2)nc1NCc1ccccc1S(C)(=O)=O` : pIC50 came out at 6.00 to 7.00

Hey, TYK2 (Homo sapiens) data for `N#CCOc1cccc(CNc2nc(Nc3cnn(CC(=O)N4CCOCC4)c3)ncc2Cl)c1` : pIC50 came out at 7.00 to 8.00

Hey, TYK2 (Homo sapiens) data for `CNC(=O)Cn1cc(Nc2ncc(Cl)c(NCc3cccc(C#N)c3)n2)cn1` : pIC50 came out at 7.00 to 8.00

Hey, TYK2 (Homo sapiens) data for `Fc1ccc(F)c(CNc2nc(Nc3cnn(CC(F)F)c3)ncc2Cl)c1F` : pIC50 came out at 7.00 to 8.00

Hey, TYK2 (Homo sapiens) data for `OCCn1cc(Nc2ncc(Cl)c(NCc3ccccc3CO)n2)cn1` : pIC50 came out at 6.00 to 7.00

###

# measuredOn: TYK2 (Homo sapiens)
# Construct: endogenous in cells; host or cells: Molt4 (ATCC CRL-1582) and Ramos (ATCC CRL-1596), mixed lysate 1:2
# testName: Kinobeads assay, TYK2 (competition binding in mixed Molt4/Ramos cell lysate, dot blot detection)
# testSettings: Kinobeads assay, Molt4/Ramos lysate; read-out: TYK2 Band (Kinobeads assay potency, IC50)
pIC50: −log10 of the molar value.
Recorded pIC50, one value per entry.

* OCCn1cc(Nc2ncc(Cl)c(NCc3cccc(F)c3C(F)(F)F)n2)cn1 | 6.00 to 7.00

# pIC50 of `Cc1cnc(Nc2cnn(CCO)c2)nc1NCc1c(F)cccc1F` = ≥ 8.00

# pIC50 of `CNC(=O)Cn1cc(Nc2ncc(Cl)c(NCc3cc(C(F)(F)F)ccc3Cl)n2)cn1` = 7.00 to 8.00

# pIC50 of CC(C(N)=O)n1cc(Nc2ncc(Cl)c(NCc3ccccc3)n2)cn1 (centres unmarked) = 6.00 to 7.00

###

Recorded IC50, one value per entry.
# measuredOn: JAK2 (Homo sapiens, UniProt O60674)
# Construct: endogenous in cells; host or cells: Molt4 (ATCC CRL-1582) and Ramos (ATCC CRL-1596), mixed lysate 1:2
# Sequence (O60674 whole entry): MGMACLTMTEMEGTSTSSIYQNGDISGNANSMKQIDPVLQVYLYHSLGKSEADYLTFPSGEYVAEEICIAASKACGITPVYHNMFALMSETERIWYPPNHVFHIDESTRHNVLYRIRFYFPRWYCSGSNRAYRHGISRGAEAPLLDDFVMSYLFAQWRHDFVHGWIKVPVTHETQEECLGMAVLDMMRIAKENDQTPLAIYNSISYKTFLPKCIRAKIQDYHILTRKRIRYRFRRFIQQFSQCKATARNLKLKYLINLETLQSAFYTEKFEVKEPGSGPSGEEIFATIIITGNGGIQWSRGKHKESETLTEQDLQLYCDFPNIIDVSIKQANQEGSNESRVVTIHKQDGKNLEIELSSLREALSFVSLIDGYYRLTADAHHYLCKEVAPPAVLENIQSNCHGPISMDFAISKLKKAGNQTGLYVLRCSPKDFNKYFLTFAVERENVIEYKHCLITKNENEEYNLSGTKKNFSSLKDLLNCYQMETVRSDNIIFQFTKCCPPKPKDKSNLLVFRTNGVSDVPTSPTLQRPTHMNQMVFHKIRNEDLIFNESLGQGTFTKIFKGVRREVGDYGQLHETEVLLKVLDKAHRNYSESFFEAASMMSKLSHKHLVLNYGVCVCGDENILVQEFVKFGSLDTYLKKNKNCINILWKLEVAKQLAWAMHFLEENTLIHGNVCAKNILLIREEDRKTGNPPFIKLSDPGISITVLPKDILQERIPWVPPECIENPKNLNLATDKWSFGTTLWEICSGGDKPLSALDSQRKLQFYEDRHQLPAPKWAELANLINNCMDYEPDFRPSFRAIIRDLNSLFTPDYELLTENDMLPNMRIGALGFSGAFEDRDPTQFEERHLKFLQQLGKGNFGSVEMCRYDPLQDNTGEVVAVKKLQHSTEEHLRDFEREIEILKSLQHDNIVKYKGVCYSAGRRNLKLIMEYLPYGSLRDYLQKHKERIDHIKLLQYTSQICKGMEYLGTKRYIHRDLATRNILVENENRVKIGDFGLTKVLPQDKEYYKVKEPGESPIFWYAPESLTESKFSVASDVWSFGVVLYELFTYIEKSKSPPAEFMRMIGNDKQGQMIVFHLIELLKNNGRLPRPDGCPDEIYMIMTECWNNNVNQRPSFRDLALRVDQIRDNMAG
# testName: Kinobeads assay, JAK2 (competition binding in mixed Molt4/Ramos cell lysate, dot blot detection)
# testSettings: read-out: JAK2 Band (Kinobeads assay potency, IC50)

Check out these entries, answers already filled in.
- O=C(Cn1cc(Nc2nccc(NCc3c(F)cccc3Cl)n2)cn1)NCC(F)F [Example I-141]: 1000 to 10000 nM
- O=C(Cn1cc(Nc2nccc(NCc3c(F)cc(F)cc3F)n2)cn1)NCCO [Example I-89]: 1000 to 10000 nM
- O=C(Cn1cc(Nc2nccc(NCc3c(F)cc(F)cc3F)n2)cn1)NCC(F)(F)F [Example I-86]: > 10000 nM
- CC(C)(O)Cn1cc(Nc2ncc(Cl)c(NCc3cc(F)ccc3F)n2)cn1 [Example I-292]: 100 to 1000 nM
- CN1CCC(n2cc(Nc3ncc(Cl)c(NCc4ccccc4)n3)cn2)C1=O (stereo not drawn) [Example I-253]: 100 to 1000 nM

# IC50 of O=C(Cn1cc(Nc2ncc(Cl)c(NCc3ccccc3)n2)cn1)N1CCCC1 [Example I-196] = 1000 to 10000 nM

# IC50 of CC(O)Cn1cc(Nc2ncc(Cl)c(NCc3c(F)cccc3F)n2)cn1 (stereo not drawn) [Example I-209] = 1000 to 10000 nM

# IC50 of COc1ccc(F)c(CNc2nc(Nc3cnn(CC(N)=O)c3)ncc2Cl)c1F [Example I-375] = 100 to 1000 nM

# IC50 of OCCn1cc(Nc2ncc(F)c(NCc3cccc(F)c3F)n2)cn1 [Example I-170] = 1000 to 10000 nM

###

# measuredOn: TYK2 (Homo sapiens, UniProt P29597)
# Construct: endogenous in cells; host or cells: Molt4 (ATCC CRL-1582) and Ramos (ATCC CRL-1596), mixed lysate 1:2
# Sequence (P29597 whole entry): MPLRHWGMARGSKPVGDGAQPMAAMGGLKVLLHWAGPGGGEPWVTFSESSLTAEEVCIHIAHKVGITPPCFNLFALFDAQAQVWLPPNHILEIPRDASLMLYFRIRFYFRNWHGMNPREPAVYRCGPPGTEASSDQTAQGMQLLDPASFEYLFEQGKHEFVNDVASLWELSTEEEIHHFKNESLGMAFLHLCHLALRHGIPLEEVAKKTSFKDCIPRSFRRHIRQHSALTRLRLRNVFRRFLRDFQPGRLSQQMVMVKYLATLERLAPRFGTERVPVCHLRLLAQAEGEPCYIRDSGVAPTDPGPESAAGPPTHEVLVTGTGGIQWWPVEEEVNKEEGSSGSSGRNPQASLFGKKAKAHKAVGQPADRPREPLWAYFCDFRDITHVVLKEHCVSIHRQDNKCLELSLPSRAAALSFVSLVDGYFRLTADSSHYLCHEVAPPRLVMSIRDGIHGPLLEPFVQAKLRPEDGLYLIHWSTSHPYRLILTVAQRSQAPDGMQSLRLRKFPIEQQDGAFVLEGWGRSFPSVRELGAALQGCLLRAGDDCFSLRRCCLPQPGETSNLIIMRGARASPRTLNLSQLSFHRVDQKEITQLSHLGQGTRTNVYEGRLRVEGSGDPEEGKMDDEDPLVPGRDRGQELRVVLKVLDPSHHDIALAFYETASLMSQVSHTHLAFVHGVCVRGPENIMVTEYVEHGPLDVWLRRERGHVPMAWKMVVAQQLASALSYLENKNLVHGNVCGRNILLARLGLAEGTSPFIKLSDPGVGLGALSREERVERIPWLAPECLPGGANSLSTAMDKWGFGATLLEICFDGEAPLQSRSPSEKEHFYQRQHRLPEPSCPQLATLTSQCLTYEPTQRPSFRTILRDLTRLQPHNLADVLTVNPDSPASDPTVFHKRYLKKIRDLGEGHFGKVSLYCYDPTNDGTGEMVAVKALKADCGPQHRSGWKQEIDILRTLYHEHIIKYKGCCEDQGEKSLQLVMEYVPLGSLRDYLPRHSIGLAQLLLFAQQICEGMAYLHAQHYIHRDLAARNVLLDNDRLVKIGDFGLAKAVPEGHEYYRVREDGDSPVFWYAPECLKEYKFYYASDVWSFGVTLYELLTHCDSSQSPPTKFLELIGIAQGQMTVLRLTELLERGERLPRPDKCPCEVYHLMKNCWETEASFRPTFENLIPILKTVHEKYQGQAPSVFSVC
# testName: Kinobeads assay, TYK2 (competition binding in mixed Molt4/Ramos cell lysate, dot blot detection)
# testSettings: Kinobeads assay, Molt4/Ramos lysate; read-out: TYK2 Band (Kinobeads assay potency, IC50)
pIC50: −log10 of the molar value.
resultType: pIC50

Check out these entries, answers already filled in.
* Cn1ccnc1Cn1cc(Nc2ncc(Cl)c(NCc3ccccc3)n2)cn1 | 6.00 to 7.00
* CS(=O)(=O)c1ccccc1CNc1nc(Nc2cnn(CC(=O)N3CCOCC3)c2)ncc1Cl | 6.00 to 7.00
* N#Cc1c(F)cccc1CNc1nc(Nc2cnn(CCO)c2)ncc1Cl | 6.00 to 7.00

# pIC50 of `Cc1cnc(Nc2cnn(CC(=O)N(C)C)c2)nc1NCc1ccccc1` = 6.00 to 7.00

# pIC50 of `COc1ccc(F)c(CNc2ccnc(Nc3cnn(CC(=O)N[C@@H]4C[C@@H]4F)c3)n2)c1F` = 7.00 to 8.00

###

Recorded IC50, one value per entry.
# measuredOn: TYK2 (Homo sapiens, UniProt P29597)
# Construct: endogenous in cells; host or cells: Molt4 (ATCC CRL-1582) and Ramos (ATCC CRL-1596), mixed lysate 1:2
# testName: Kinobeads assay, TYK2 (competition binding in mixed Molt4/Ramos cell lysate, dot blot detection)
# testSettings: Kinobeads assay, Molt4/Ramos lysate; read-out: TYK2 Band (Kinobeads assay potency, IC50)

Check out these entries, answers already filled in.
• CC(C)NC(=O)Cn1cc(Nc2ncc(Cl)c(NCc3cccc(OC(F)F)c3)n2)cn1 [Example I-391] = 10 to 100 nM
• O=C(Cn1cc(Nc2ncc(F)c(NCc3cccc(OC(F)F)c3)n2)cn1)NC1CC1 [Example I-46] = 10 to 100 nM
• Cc1cnc(Nc2cnn(CC(=O)N3CCOCC3)c2)nc1NCc1c(F)cc(F)cc1F [Example I-21] = ≤ 10 nM
• NS(=O)(=O)c1ccc(F)c(CNc2nc(Nc3cnn(CCO)c3)ncc2Cl)c1 [Example I-226] = 10 to 100 nM
• CS(=O)(=O)Cn1cc(Nc2ncc(Cl)c(NCc3ccccc3)n2)cn1 [Example I-254] = 100 to 1000 nM
• Cn1cc(Nc2ncc(Cl)c(NCc3ccccc3)n2)cn1 [Example I-158] = 100 to 1000 nM
• N#Cc1cccc(CNc2nc(Nc3cnn(CCO)c3)ncc2Cl)c1 [Example I-182] = 10 to 100 nM
• OCCn1cc(Nc2ncc(Cl)c(NCc3ncccc3F)n2)cn1 [Example I-259] = 10 to 100 nM
• COc1ccc(F)c(CNc2nc(Nc3cnn(CCOC(C)C)c3)ncc2F)c1F [Example I-394] = 100 to 1000 nM
• C[C@H](O)Cn1cc(Nc2ncc(Cl)c(NCc3ccccc3F)n2)cn1 [Example I-257] = 100 to 1000 nM

# IC50 of CNC(=O)Cn1cc(Nc2ncc(F)c(NCc3c(F)ccc(F)c3F)n2)cn1 [Example I-410] = 10 to 100 nM

# IC50 of O=C(Cn1cc(Nc2nccc(NCc3c(F)cc(F)cc3F)n2)cn1)NC1CC1(F)F (centres unmarked) [Example I-91] = 10 to 100 nM

###

# measuredOn: TYK2 (Homo sapiens)
# Construct: endogenous in cells; host or cells: Molt4 (ATCC CRL-1582) and Ramos (ATCC CRL-1596), mixed lysate 1:2
# testName: Kinobeads assay, TYK2 (competition binding in mixed Molt4/Ramos cell lysate, dot blot detection)
# testSettings: Kinobeads assay, Molt4/Ramos lysate; read-out: TYK2 Band (Kinobeads assay potency, IC50)
# Protocol: The compounds of the present invention as described in the previous examples were tested in a Kinobeads™ assay as described for ZAP-70 (WO-A 2007/137867). […] Bound proteins were then eluted and the presence of TYK2 and JAK2 was detected and quantified using specific antibodies in a dot blot procedure and the Odyssey infrared detection system. Dose response curves for individual kinases were generated and IC50 values calculated. […]
pIC50: −log10 of the molar value.
resultType: pIC50

- Cc1cnc(Nc2cnn(CCO)c2)nc1NCc1ccc(S(N)(=O)=O)cc1: 7.00 to 8.00
- O=C(Cn1cc(Nc2ncc(Cl)c(NCc3c(F)cccc3F)n2)cn1)N1CCOCC1: ≥ 8.00
- OCCn1cc(Nc2ncc(Cl)c(NCc3ccccc3C(F)(F)F)n2)cn1: 6.00 to 7.00

# pIC50 of `COc1ccc(F)c(CNc2ccnc(Nc3cnn(CC(=O)NC(C)C)c3)n2)c1F` = 7.00 to 8.00

# pIC50 of `C[C@H](CO)NC(=O)Cn1cc(Nc2nccc(NCc3c(F)ccc(F)c3F)n2)cn1` = 7.00 to 8.00

# pIC50 of `CS(=O)(=O)c1ccccc1CNc1nc(Nc2cnn(CC(F)F)c2)ncc1F` = 5.00 to 6.00

# pIC50 of `COc1ccc(F)c(CNc2nc(Nc3cnn(CC(=O)N(C)C(C)C)c3)ncc2F)c1F` = ≥ 8.00

# pIC50 of `Fc1ccc(F)c(CNc2nc(Nc3cnn(C(F)F)c3)ncc2Cl)c1` = 6.00 to 7.00

# pIC50 of `NS(=O)(=O)c1cccc(CNc2nc(Nc3cnn(CCO)c3)ncc2Cl)c1` = 6.00 to 7.00

# pIC50 of `CN(CC#N)C(=O)Cn1cc(Nc2ncc(Cl)c(NCc3ccccc3)n2)cn1` = 6.00 to 7.00

# pIC50 of `C[C@@H](C(N)=O)n1cc(Nc2ncc(Cl)c(NCc3ccccc3)n2)cn1` = 6.00 to 7.00

# pIC50 of `Cn1cc(Nc2ncc(Cl)c(NCc3cccc(C#N)c3)n2)cn1` = 7.00 to 8.00

Data origin, for the record: patent US9296725B2
